Hey, just so you know, these numbers are from PubChem BioAssay (NCI).

System: U251 CNS
Assay: NCI tumour cell line growth inhibition, 48 h
observation-type: log10 TGI (log10 of the value in µM)
In our notation, the value equals log10 of TGI in µM.

## Input For U251 CNS, provide log10 TGI of CN1C(=O)[C@@H]2[C@@H]3c4ccccc4N[C@@H]3c3[nH]c4ccccc4c3[C@@H]2C1=O please.
## Output 1.82

## Input Same again, this time with CCCCC1N=CNc2c1ccc1c2[nH]c2ccccc21 (stereo not given)
## Output 1.22

## Input Same again, this time with COc1cc(-c2ccc(=O)oc2C#Cc2ccccc2)cc(OC)c1OC
## Output 1.54

## Input Same again, this time with COC1/C=C/OC2(C)Oc3c(C)c(O)c4c(O)c(c(C=NOC(c5ccccc5)c5ccccc5)c(O)c4c3C2=O)NC(=O)/C(C)=C/C=C/C(C)C(O)C(C)C(O)C(C)C(OC(C)=O)C1C (stereo not given)
## Output 0.29

## Input Same again, this time with Cc1cc(Cl)ccc1Nc1nc2c(s1)C(=O)c1ccccc1C2=O
## Output 1.10
